# credit: patent US7772230B2

molecular target: slowly delayed rectifier potassium channel current (IKs) (Cavia porcellus, UniProt O70344); construct: the Guinea pig myocardial cells are separated with enzymolysis; endogenous in cells; host or cells: freshly isolated guinea pig ventricular myocytes; assay: whole cell patch clamp on isolated Guinea pig myocardial cells, IKs; type: cell-based; details: Guinea pig ventricular myocytes, current recorded 10 min after administration, 25-30° C.
Sequence (O70344 whole entry): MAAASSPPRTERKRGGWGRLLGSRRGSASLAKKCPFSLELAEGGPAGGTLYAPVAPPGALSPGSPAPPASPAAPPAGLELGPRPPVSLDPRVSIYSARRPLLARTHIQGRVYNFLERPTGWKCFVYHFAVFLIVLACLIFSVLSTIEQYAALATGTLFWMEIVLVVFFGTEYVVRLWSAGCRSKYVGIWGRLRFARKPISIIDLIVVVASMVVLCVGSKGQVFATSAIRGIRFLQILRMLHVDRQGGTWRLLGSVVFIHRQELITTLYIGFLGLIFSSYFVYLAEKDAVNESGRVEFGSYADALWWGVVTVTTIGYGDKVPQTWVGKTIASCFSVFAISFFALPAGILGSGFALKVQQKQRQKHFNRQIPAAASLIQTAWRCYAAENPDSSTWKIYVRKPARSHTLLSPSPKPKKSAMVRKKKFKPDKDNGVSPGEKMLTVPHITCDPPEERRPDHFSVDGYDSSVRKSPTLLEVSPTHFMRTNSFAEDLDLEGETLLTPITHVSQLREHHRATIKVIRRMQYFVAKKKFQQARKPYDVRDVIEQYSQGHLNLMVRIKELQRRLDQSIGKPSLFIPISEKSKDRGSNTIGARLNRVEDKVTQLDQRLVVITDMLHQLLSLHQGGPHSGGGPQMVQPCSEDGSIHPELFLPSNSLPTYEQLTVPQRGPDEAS
Sequence (P41686 whole entry partner): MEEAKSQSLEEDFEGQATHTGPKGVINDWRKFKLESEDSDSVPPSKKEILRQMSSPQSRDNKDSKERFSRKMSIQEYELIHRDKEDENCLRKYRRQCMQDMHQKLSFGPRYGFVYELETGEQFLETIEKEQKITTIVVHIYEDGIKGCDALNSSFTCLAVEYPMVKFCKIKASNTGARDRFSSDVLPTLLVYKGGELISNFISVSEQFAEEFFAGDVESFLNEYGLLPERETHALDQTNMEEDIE
measured-property: IC50 (µM)
Dear colleague, please return just the value in µM, with no unit written.

Use the examples below as a reference point.
>>> value("CCCOc1ccc2c(c1)/C(=N/N1CC(=O)N(CCCCN3CCCCC3)C1=O)CCO2 [Ib example 6]")
0.0032
>>> value("COc1ccc2c(c1)/C(=N/N1CC(=O)N(CCCCN3CCCCC3)C1=O)CCO2 [Ia example 5]")
22
>>> value("CCCCOc1ccc2c(c1)/C(=N/N1CC(=O)N(CCCCN3CCN(C)CC3)C1=O)CCO2.O=C(O)/C=C/C(=O)O [Ib example 4]")
0.022
>>> value("CCCOc1ccc2c(c1)/C(=N/N1CC(=O)N(CCCCN3CCN(C)CC3)C1=O)CCO2.O=C(O)/C=C/C(=O)O [Ib example 3]")
1.28

Lookup: State its IC50 for this molecule: CCCOc1ccc2c(c1)/C(=N/N1CC(=O)N(CCCN3CCN(C)CC3)C1=O)CCO2 [Ib example 10]
Found: 0.0095

Lookup: Recall and state the measured IC50 for Cc1ccc2c(c1)/C(=N/N1CC(=O)N(CCCN3CCN(C)CC3)C1=O)CCO2 [Ia example 9] .
Found: 0.304

Lookup: Give the value of IC50 reported for the following: COc1ccc2c(c1)/C(=N/N1CC(=O)N(CCCN3CCN(C)CC3)C1=O)CCO2 [Ia example 8]
Found: 0.0019

Lookup: Annotate the molecule CN1CCN(CCCCN2C(=O)CN(/N=C3\CCOc4ccc(Cl)cc43)C2=O)CC1.O=C(O)/C=C/C(=O)O [Ia example 2] with its measured IC50.
Found: 0.073

====

measured-property: melting point

Consider the following illustrative entries.
>>> value("CCCCOc1ccc2c(c1)/C(=N/N1CC(=O)N(CCCCN3CCN(C)CC3)C1=O)CCO2.O=C(O)/C=C/C(=O)O")
"208 to 210 °C"
>>> value("CCCOc1ccc2c(c1)/C(=N/N1CC(=O)N(CCCCN3CCN(C)CC3)C1=O)CCO2.O=C(O)/C=C/C(=O)O")
"218 to 220 °C"
>>> value("CN1CCN(CCCCN2C(=O)CN(/N=C3\\CCOc4ccc(Cl)cc43)C2=O)CC1.O=C(O)/C=C/C(=O)O")
"230 to 232 °C"
>>> value("CN1CCN(CCCCN2C(=O)CN(/N=C3\\CCOc4ccc(O)cc43)C2=O)CC1.O=C(O)/C=C/C(=O)O")
"203 to 205 °C"

# input for lookup
Lookup: Input COc1ccc2c(c1)/C(=N/N1CC(=O)N(CCCCN3CCN(C)CC3)C1=O)CCO2.O=C(O)/C=C/C(=O)O , output reported melting point.
Found: 208 to 210 °C

====

Listing of entries alongside the reported IC50.
target: rapidly delayed rectifier potassium channel current (IKr) (Cavia porcellus); construct: the Guinea pig myocardial cells are separated with enzymolysis; endogenous in cells; assay: whole cell patch clamp on isolated Guinea pig myocardial cells, IKr; conditions: Guinea pig ventricular myocytes, current recorded 10 min after administration, 25-30° C.
Sequence (O08703 whole entry): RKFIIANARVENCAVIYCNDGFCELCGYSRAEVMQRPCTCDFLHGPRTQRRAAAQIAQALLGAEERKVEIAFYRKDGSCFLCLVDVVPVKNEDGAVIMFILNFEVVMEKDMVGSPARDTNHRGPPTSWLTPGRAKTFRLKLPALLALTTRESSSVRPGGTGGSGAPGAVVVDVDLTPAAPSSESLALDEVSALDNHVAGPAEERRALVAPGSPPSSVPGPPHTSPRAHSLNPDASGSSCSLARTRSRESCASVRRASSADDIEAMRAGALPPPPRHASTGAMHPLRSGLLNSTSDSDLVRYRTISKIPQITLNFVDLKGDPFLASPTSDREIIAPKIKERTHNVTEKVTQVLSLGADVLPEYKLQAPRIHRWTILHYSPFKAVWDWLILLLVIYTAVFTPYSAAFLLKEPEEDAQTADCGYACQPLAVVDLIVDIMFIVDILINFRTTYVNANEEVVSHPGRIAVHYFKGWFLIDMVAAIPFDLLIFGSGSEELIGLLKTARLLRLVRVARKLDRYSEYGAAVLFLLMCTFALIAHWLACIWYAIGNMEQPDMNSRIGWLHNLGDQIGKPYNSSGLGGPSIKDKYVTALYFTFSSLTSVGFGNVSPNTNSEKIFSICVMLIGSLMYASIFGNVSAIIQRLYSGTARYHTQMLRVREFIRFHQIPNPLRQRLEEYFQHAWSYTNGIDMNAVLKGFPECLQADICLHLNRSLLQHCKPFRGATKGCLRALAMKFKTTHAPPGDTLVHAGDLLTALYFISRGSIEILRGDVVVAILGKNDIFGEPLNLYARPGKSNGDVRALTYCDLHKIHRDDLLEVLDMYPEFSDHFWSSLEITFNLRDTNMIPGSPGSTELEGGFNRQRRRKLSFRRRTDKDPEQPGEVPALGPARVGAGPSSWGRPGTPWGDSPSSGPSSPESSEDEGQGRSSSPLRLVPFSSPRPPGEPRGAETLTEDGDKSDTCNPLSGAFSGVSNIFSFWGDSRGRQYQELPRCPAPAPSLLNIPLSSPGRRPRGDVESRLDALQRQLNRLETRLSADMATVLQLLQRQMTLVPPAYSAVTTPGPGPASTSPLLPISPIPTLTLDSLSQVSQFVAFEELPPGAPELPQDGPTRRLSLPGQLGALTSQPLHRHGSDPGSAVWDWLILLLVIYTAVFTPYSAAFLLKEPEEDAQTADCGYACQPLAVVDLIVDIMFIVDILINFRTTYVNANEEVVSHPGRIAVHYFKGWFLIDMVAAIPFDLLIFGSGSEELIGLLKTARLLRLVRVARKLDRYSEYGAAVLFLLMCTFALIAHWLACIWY
The reply should contain only the number, in µM.

# annotated cases, reported IC50 shown
>>> value("CCCOc1ccc2c(c1)/C(=N/N1CC(=O)N(CCCCN3CCN(C)CC3)C1=O)CCO2.O=C(O)/C=C/C(=O)O")
11.8
>>> value("Cc1ccc2c(c1)/C(=N/N1CC(=O)N(CCCN3CCN(C)CC3)C1=O)CCO2")
0.619

Lookup: Please list IC50 recorded for the molecule CCCCOc1ccc2c(c1)/C(=N/N1CC(=O)N(CCCCN3CCCCC3)C1=O)CCO2
Found: 0.0174
